tested on: PCSK9 gene; assay: PCSK9 gRNA/SpCas9 editing in primary cynomolgus hepatocytes (Tables 2, 22); assay type: cell-based, cynomolgus monkey; settings: 2500 ng/RNA/mL; SpCas9 mRNA MS002 1:1 by weight
In the oligonucleotide strings, read from the 5' end, every base follows the letter of its sugar. An asterisk marks phosphorothioate; unmarked linkages are phosphodiester. Other units and linkages are bracketed, terminal groups are in braces. A string of capitals states the bases alone. m = 2'-O-methyl; r = 2'-OH (RNA)
Criterion: Cyno Primary Hepatocyte Editing % 2500 strictly less than 40%. Met: MET. Not met: NOT MET.

| molecule | assigned.label |
| --- | --- |
| GA189: PCSK9 gRNA; protospacer TCCTCGATGTAGTCGACATG (SEQ ID NO: 183) (nucleic acid) guide: mU*mC*mC*rUrCrGrArUrGrUrArGrUrCrGrArCrArUrGrGrUrUrUrUrArGrArGrCrUrArGrArArArUrArGrCrArArGrUrUrArArArArUrArArGrGrCrUrArGrUrCrCrGrUrUrArUrCrArArCrUrUrGrArArArArArGrUrGrGrCrArCrCrGrArGrUrCrGrGrUrGrCrU*mU*mU*mU | NOT MET |
| GA213: PCSK9 gRNA; protospacer CGTGCTCAACTGCCAAGGGA (SEQ ID NO: 207) (nucleic acid, sugars from the 5' end m3 r94 m3, linkages s3 o93 s3 (s phosphorothioate, o phosphodiester), T or U not given here) guide: CGUGCUCAACUGCCAAGGGAGUUUUAGAGCUAGAAAUAGCAAGUUAAAAUAAGGCUAGUCCGUUAUCAACUUGAAAAAGUGGCACCGAGUCGGUGCUUUU | NOT MET |
| GA182: PCSK9 gRNA; protospacer CACCTACGTGGTGGTGCTGA (SEQ ID NO: 176) (nucleic acid) guide: mC*mA*mC*rCrUrArCrGrUrGrGrUrGrGrUrGrCrUrGrArGrUrUrUrUrArGrArGrCrUrArGrArArArUrArGrCrArArGrUrUrArArArArUrArArGrGrCrUrArGrUrCrCrGrUrUrArUrCrArArCrUrUrGrArArArArArGrUrGrGrCrArCrCrGrArGrUrCrGrGrUrGrCrU*mU*mU*mU | MET |
| GA229: PCSK9 gRNA; protospacer GTCGTGCTGGTCACCGCTGC (SEQ ID NO: 223) (nucleic acid, sugars from the 5' end m3 r94 m3, linkages s3 o93 s3 (s phosphorothioate, o phosphodiester), T or U not given here) guide: GUCGUGCUGGUCACCGCUGCGUUUUAGAGCUAGAAAUAGCAAGUUAAAAUAAGGCUAGUCCGUUAUCAACUUGAAAAAGUGGCACCGAGUCGGUGCUUUU | MET |
| GA228: PCSK9 gRNA; protospacer CGGCTGTACCCACCCGCCAG (SEQ ID NO: 222) (nucleic acid, sugars from the 5' end m3 r94 m3, linkages s3 o93 s3 (s phosphorothioate, o phosphodiester), T or U not given here) guide: CGGCUGUACCCACCCGCCAGGUUUUAGAGCUAGAAAUAGCAAGUUAAAAUAAGGCUAGUCCGUUAUCAACUUGAAAAAGUGGCACCGAGUCGGUGCUUUU | MET |
| GA191: PCSK9 gRNA; protospacer GCCCCATGTCGACTACATCG (SEQ ID NO: 185) (nucleic acid) guide: mG*mC*mC*rCrCrArUrGrUrCrGrArCrUrArCrArUrCrGrGrUrUrUrUrArGrArGrCrUrArGrArArArUrArGrCrArArGrUrUrArArArArUrArArGrGrCrUrArGrUrCrCrGrUrUrArUrCrArArCrUrUrGrArArArArArGrUrGrGrCrArCrCrGrArGrUrCrGrGrUrGrCrU*mU*mU*mU | NOT MET |
